Molecular target: mouse CD38 (Mus musculus, UniProt P56528)
Experiment: mouse recombinant CD38 enzyme assay (hydrolysis of NAD+)
Conditions: read-out: mCD38 BioChem IC50
quantityName: IC50 (nM)

compoundstring=O=C(Nc1ccc(C(F)(F)F)nc1)c1ccc(F)c(-n2ccnc2)n1 val=10
compoundstring=CO[C@H]1CC[C@H](NC(=O)c2cc(C(C)(C)O)nc(-c3cncn3C)n2)CC1 val=13
compoundstring=Cn1cncc1-c1ccnc(C(=O)N[C@H]2C[C@H](c3ccccc3F)C2)n1 val=13.3
compoundstring=COCCO[C@H]1CC[C@H](NC(=O)c2nc(OC)cc(-c3cncn3C)n2)CC1 val=9
compoundstring=Cn1cncc1-c1nc(C(=O)N[C@H]2C[C@](O)(c3ccccc3)C2)cc(C2CCOCC2)n1 val=10.7
compoundstring=COc1ccc(NC(=O)c2nccc(-c3cncn3C)n2)cn1 val=10

* * *

Target: mouse CD38 (Mus musculus)
Sequence (P56528 1-304): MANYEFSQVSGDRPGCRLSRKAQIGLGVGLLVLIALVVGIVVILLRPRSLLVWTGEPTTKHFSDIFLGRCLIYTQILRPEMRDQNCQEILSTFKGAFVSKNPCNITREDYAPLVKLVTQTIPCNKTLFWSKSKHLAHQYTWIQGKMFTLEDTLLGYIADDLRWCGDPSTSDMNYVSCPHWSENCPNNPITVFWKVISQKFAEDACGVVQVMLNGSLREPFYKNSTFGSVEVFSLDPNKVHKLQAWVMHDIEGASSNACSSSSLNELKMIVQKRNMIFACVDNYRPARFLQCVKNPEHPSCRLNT
Assay: mouse recombinant CD38 enzyme assay (hydrolysis of NAD+)
Settings: read-out: mCD38 BioChem IC50
quantityName: log10(IC50) (log10 of the value in nM)

compound="CC(C)(O)c1cc(C(=O)Nc2ccc(C(F)(F)F)nc2)nc(-n2ccnc2)n1 [Compound 175]" val=2.53
compound="CC(C)(O)c1ccc(NC(=O)c2nccc(-n3ccnc3)n2)cn1 [Compound 249]" val=1.66
compound="Cn1cncc1-c1nc(C(=O)N[C@H]2CC[C@H](NCC(F)(F)F)CC2)cc(C2CCOCC2)n1 [Compound 300]" val=0.20
compound="Cc1ncccc1NC(=O)c1cccc(-n2ccnc2)n1 [Compound 27]" val=1.81
compound="Cc1cc(C(=O)Nc2ccc(C(F)F)nc2)nc(-c2cncs2)c1 [Compound 132]" val=1.74
compound="CC(C)(O)[C@H]1CC[C@H](NC(=O)c2nccc(-n3ccnc3)n2)CC1 [Compound 251]" val=1.77
compound="CCO[C@H]1C[C@H](NC(=O)c2nccc(-n3ccnc3)n2)C1 [Compound 301]" val=2.30
compound="O=C(N[C@H]1CC[C@H](CO)CC1)c1cc(C2CC2)nc(-c2cncs2)n1 [Compound 141]" val=1.45
compound="COC[C@H]1CC[C@H](NC(=O)c2ccnc(-c3cncs3)n2)CC1 [Compound 139]" val=2.37

* * *

Biological target: endogenous CD38 in HL60 cells (Homo sapiens, UniProt P28907)
Construct: endogenous in cells
Test: cellular CD38 assay in HL60 cells (cellular NAD levels)
Settings: all-trans retinoic acid, 24 hours, read-out: hCD38 HL60 ATRA NAD Cell Diaphorase IC50
pIC50: −log10 of the molar value.
quantityName: pIC50

compound="CC(C)(O)c1cc(C(=O)Nc2ccc(C(F)F)nc2)nc(-n2ccnc2)n1 [Compound 158]" val=5.40
compound="Cc1cc(C(=O)Nc2ccc(C(F)F)nc2)nc(-c2cncs2)c1 [Compound 132]" val=5.25
compound="Cc1ccc(-n2ccnc2)nc1C(=O)N[C@H]1CC[C@H](C(F)F)CC1 [Compound 101]" val=5.08
compound="Cn1cncc1-c1ccnc(C(=O)NC23CC(C(C)(C)O)(C2)C3)n1 [Compound 294]" val=5.35
compound="O=C(N[C@H]1CC[C@H](OC(F)F)CC1)c1nccc(-n2ccnc2)n1 [Compound 293]" val=5.55
compound="Cn1cncc1-c1nc(C(=O)Nc2ccc(C(F)(F)F)nc2)cc(C2CCOCC2)n1 [Compound 198]" val=5.95
compound="O=C(NC1CCOCC1)c1cccc(-n2ccnc2)n1 [Compound 12]" val=5.40
compound="CO[C@H]1CC[C@H](NC(=O)c2cc(C)nc(-c3cncn3C)n2)CC1 [Compound 121]" val=5.98
compound="COc1ncc(-c2cncn2C)nc1C(=O)N[C@H]1CC[C@H](OC)CC1 [Compound 303]" val=4.98
compound="COC(=O)N1CCC(NC(=O)c2cccc(-n3ccnc3)n2)CC1 [Compound 45]" val=5.33
compound="O=C(N[C@H]1C[C@H](c2ccnc(C(F)(F)F)c2)C1)c1nccc(-n2ccnc2)n1 [Compound 268]" val=5.86
compound="O=C(Nc1ccc(C(F)(F)F)nc1)c1cccc(-n2ccnc2)n1 [Compound 13]" val=6.25
compound="Cn1cncc1-c1cncc(C(=O)Nc2ccc(C(F)(F)F)nc2)n1 [Compound 90]" val=6.43
compound="CC(C)c1cc(C(=O)Nc2ccc(C(F)(F)F)nc2)nc(-n2ccnc2)n1 [Compound 170]" val=5.31
compound="O=C(Nc1ccc(C(F)F)nc1)c1cccc(-n2ccnc2)n1 [Compound 95]" val=6.55
compound="CO[C@H]1CC[C@H](NC(=O)c2nc(-c3cncn3C)cc(C3CC3)n2)CC1 [Compound 203]" val=5.10
compound="O=C(N[C@H]1CC[C@@H](O)CC1)c1cccc(-n2ccnc2)n1 [Compound 31]" val=4.80
compound="Cn1cncc1-c1ccnc(C(=O)N[C@H]2CC[C@H](C)CC2)n1 [Compound 149]" val=5.86
compound="Cc1ncccc1NC(=O)c1cccc(-n2ccnc2)n1 [Compound 27]" val=4.98
compound="Cc1ccc(NC(=O)c2cc(-n3ccnc3)ccn2)cn1 [Compound 2]" val=5.51
compound="C[C@H]1CC[C@H](NC(=O)c2nccc(-n3ccnc3)n2)CC1 [Compound 146]" val=5.77
compound="O=C(N[C@H]1CC[C@H](C(F)F)CC1)c1cncc(-n2ccnc2)n1 [Compound 89]" val=6.04

* * *

Biological target: human CD38 (Homo sapiens)
Sequence (P28907 1-300): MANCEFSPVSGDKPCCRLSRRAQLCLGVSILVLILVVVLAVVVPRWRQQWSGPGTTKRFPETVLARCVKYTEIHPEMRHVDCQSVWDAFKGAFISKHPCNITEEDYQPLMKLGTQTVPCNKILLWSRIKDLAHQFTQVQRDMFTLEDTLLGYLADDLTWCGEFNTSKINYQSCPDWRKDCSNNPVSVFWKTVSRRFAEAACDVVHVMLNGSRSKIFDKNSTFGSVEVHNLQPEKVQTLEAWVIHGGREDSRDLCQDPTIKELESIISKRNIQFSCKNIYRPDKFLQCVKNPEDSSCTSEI
Assay: human recombinant CD38 enzyme assay (hydrolysis of NAD+)
Settings: human recombinant CD38, 0.4 nM enzyme, 62.5 μM NAD+; read-out: hCD38 BioChem IC50
pIC50: −log10 of the molar value.
quantityName: pIC50

compoundstring=O=C(Nc1ccc(C(F)(F)F)nc1)c1cc(C2CC2)nc(-c2cncs2)n1 val=6.51
compoundstring=CO[C@H]1CC[C@H](NC(=O)c2nc(-c3cncn3C)ncc2Cl)CC1 val=7.47
compoundstring=Cn1cncc1-c1ccnc(C(=O)N[C@H]2CC[C@H](OC(F)(F)F)CC2)n1 val=7.10
compoundstring=CC(C)(O)[C@H]1CC[C@H](NC(=O)c2nccc(-n3ccnc3)n2)CC1 val=6.68
compoundstring=C[C@H]1CC[C@H](NC(=O)c2nccc(-n3ccnc3)n2)CC1 val=7.21
compoundstring=O=C(Nc1ccc(OC(F)F)nc1)c1nccc(-n2ccnc2)n1 val=8.38
compoundstring=Cn1cncc1-c1ncc(Cl)c(C(=O)N[C@H]2CC[C@H](OC(F)F)CC2)n1 val=7.66
compoundstring=O=C(NC1CN(c2ccccc2)C1)c1nccc(-n2ccnc2)n1 val=5.74
compoundstring=COc1cc(C(=O)N[C@H]2CC[C@H](OC)CC2)nc(-n2ccnc2)n1 val=7.72
compoundstring=CO[C@H]1CC[C@H](NC(=O)c2cc(C)nc(-n3ccnc3)n2)CC1 val=7.77
compoundstring=Cn1cncc1-c1nccc(C(=O)Nc2ccc(C(F)F)nc2)n1 val=8.70
compoundstring=O=C(Nc1ccc(C(F)(F)F)nc1)c1nccc(-n2ccnc2)n1 val=8.40
compoundstring=COc1cc(C(=O)N[C@H]2CC[C@H](C)CC2)nc(-n2ccnc2)c1 val=7.68
compoundstring=Cc1cc(C(=O)N[C@H]2CC[C@H](C(F)F)CC2)nc(-n2ccnc2)n1 val=8.00
compoundstring=CO[C@H]1CC[C@H](NC(=O)c2cc(C3CCC3)nc(-c3cncn3C)n2)CC1 val=7.85
compoundstring=O=C(Nc1ccc(C(F)F)nc1)c1cc(C2CCOCC2)nc(-n2ccnc2)n1 val=7.84

* * *

Target: human CD38 (Homo sapiens, UniProt P28907)
Test: human recombinant CD38 enzyme assay (hydrolysis of NAD+)
Format: biochemical
Conditions: human recombinant CD38, 0.4 nM enzyme, 62.5 μM NAD+; read-out: hCD38 BioChem IC50
Method: Compounds described herein were assayed for their ability to inhibit the hydrolysis of NAD+ by the protein CD38. […] Dose responses were measured using an assay to detect the hydrolysis of NAD+. […] Subsequent detection of remaining NAD+ was determined by first converting NAD+ to NADH using alcohol dehydrogenase, then using the resulting NADH to reduce resazurine to the fluorescent product resorufin. […] The plates were read for fluorescence (Excitation/Emission=540 nm/590 nm) using an EnVision plate reader. […]
pIC50: −log10 of the molar value.
Please enter true where pIC50 is greater than or equal to 8, and false where it is lower.

compoundstring=CC(C)(O)c1ccc(NC(=O)c2nccc(-n3ccnc3)n2)cc1 systemundertest="human CD38 (Homo sapiens, UniProt P28907)" cat=true
compoundstring=CO[C@H]1CC[C@H](NC(=O)c2cc(C3CCOCC3)nc(-n3ccnc3)n2)CC1 systemundertest="human CD38 (Homo sapiens, UniProt P28907)" cat=false
compoundstring=CC(C)O[C@H]1C[C@H](NC(=O)c2nccc(-c3cncn3C)n2)C1 systemundertest="human CD38 (Homo sapiens, UniProt P28907)" cat=false
compoundstring=Cn1cncc1-c1ccnc(C(=O)N[C@H]2CCN(c3ccccc3)C2)n1 systemundertest="human CD38 (Homo sapiens, UniProt P28907)" cat=false
